Assay: Pharmacokinetic measurements of H3B-6527 capsules in patients (trial NCT02834780), plasma LC-MS/MS
Type: in vivo, human
Conditions: human, plasma, oral, 700 mg, 700 mg BID, fed, Day 1; Table 6, actual times after QC; read-out: AUC, geometric mean (CV%)
Recorded Endpoint: AUC (ng·h/mL)
A number alone suffices; assume ng·h/mL.

Request: Give the reported AUC for this compound. C=CC(=O)Nc1cc(N2CCN(CC)CC2)ccc1Nc1cc(N(C)C(=O)Nc2c(Cl)c(OC)cc(OC)c2Cl)ncn1
Response: 591

* * *

Assay: Pharmacokinetic measurements of H3B-6527 capsules in patients (trial NCT02834780), plasma LC-MS/MS
Type: in vivo, human
Conditions: human, plasma, oral, 1000 mg, 1000 mg QD, fasted, Day 8; Table 5, nominal times; read-out: Tmax, median (min-max)
Recorded Endpoint: Tmax (h)
A number alone suffices; assume h.

Request: Indicate its recorded Tmax; the compound in question is C=CC(=O)Nc1cc(N2CCN(CC)CC2)ccc1Nc1cc(N(C)C(=O)Nc2c(Cl)c(OC)cc(OC)c2Cl)ncn1
Response: 2.02

* * *

Assay: Pharmacokinetic measurements of H3B-6527 capsules in patients (trial NCT02834780), plasma LC-MS/MS
Type: in vivo, human
Details: 2000 mg QD, fed, Day 8; Table 5, nominal times
Recorded Endpoint: AUC, geometric mean (CV%)
Report as: number unit

Request: Indicate the recorded AUC, geometric mean (CV%) value for this compound: C=CC(=O)Nc1cc(N2CCN(CC)CC2)ccc1Nc1cc(N(C)C(=O)Nc2c(Cl)c(OC)cc(OC)c2Cl)ncn1 [H3B-6527]
Response: 1920 ng·h/mL

* * *

Assay: Pharmacokinetic measurements of H3B-6527 capsules in patients (trial NCT02834780), plasma LC-MS/MS
Type: in vivo, human
Settings: human, plasma, oral, 1000 mg, 1000 mg QD, fed, Day 8; Table 5, nominal times; read-out: Cmax, geometric mean (CV%)
Recorded Endpoint: Cmax (ng/mL)
Please state the figure in ng/mL; there is no need to write the unit.

Request: Complete the entry with Cmax for C=CC(=O)Nc1cc(N2CCN(CC)CC2)ccc1Nc1cc(N(C)C(=O)Nc2c(Cl)c(OC)cc(OC)c2Cl)ncn1
Response: 199

* * *

Assay: Pharmacokinetic measurements of H3B-6527 capsules in patients (trial NCT02834780), plasma LC-MS/MS
Format: in vivo, human
Conditions: human, plasma, oral, 1400 mg, 1400 mg QD, fasted, Day 8; Table 6, actual times after QC; read-out: Tmax, median (min-max)
Recorded Endpoint: Tmax (h)
Just the number please, in h, no unit attached.

Request: # return recorded Tmax for input C=CC(=O)Nc1cc(N2CCN(CC)CC2)ccc1Nc1cc(N(C)C(=O)Nc2c(Cl)c(OC)cc(OC)c2Cl)ncn1
Response: 2.1

* * *

Test: Pharmacokinetic measurements of H3B-6527 capsules in patients (trial NCT02834780), plasma LC-MS/MS
Format: in vivo, human
Settings: human, plasma, oral, 1400 mg, 1400 mg QD, fed, Day 8; Table 6, actual times after QC; read-out: Tmax, median (min-max)
Recorded Endpoint: Tmax (h)
Write it as a number; the unit h goes unstated.

Request: Give the reported value of Tmax for this record: C=CC(=O)Nc1cc(N2CCN(CC)CC2)ccc1Nc1cc(N(C)C(=O)Nc2c(Cl)c(OC)cc(OC)c2Cl)ncn1 [H3B-6527]
Response: 5.86

* * *

Experiment: Pharmacokinetic measurements of H3B-6527 capsules in patients (trial NCT02834780), plasma LC-MS/MS
Assay type: in vivo, human
Details: human, plasma, oral, 700 mg, 700 mg BID, fed, Day 1; Table 5, nominal times; read-out: Tmax, median (min-max)
Recorded Endpoint: Tmax (h)
Use h as the unit, but write only the number.

Request: Please give the documented Tmax of C=CC(=O)Nc1cc(N2CCN(CC)CC2)ccc1Nc1cc(N(C)C(=O)Nc2c(Cl)c(OC)cc(OC)c2Cl)ncn1
Response: 2.02

* * *

Experiment: Pharmacokinetic measurements of H3B-6527 capsules in patients (trial NCT02834780), plasma LC-MS/MS
Type: in vivo, human
Conditions: human, plasma, oral, 500 mg, 500 mg BID, fed, Day 1; Table 6, actual times after QC; read-out: AUC, geometric mean (CV%)
Procedure: A description of the first in human clinical trial for H3B-6527 can be found at the ClinicalTrials.gov by searching for trial identifier NCT02834780. […] Blood samples are collected at the planned time points from each patient and centrifuged. […] The concentration data are then analyzed using Phoenix® WinNonlin software to obtain PK parameters. […]
Recorded Endpoint: AUC (ng·h/mL)
Reply numerically in ng·h/mL, unit not repeated.

Request: Specify AUC for C=CC(=O)Nc1cc(N2CCN(CC)CC2)ccc1Nc1cc(N(C)C(=O)Nc2c(Cl)c(OC)cc(OC)c2Cl)ncn1 and stop.
Response: 768

* * *

Experiment: Pharmacokinetic measurements of H3B-6527 capsules in patients (trial NCT02834780), plasma LC-MS/MS
Assay type: in vivo, human
Details: human, plasma, oral, 600 mg, 600 mg QD, fasted, Day 8; Table 6, actual times after QC; read-out: Tmax, median (min-max)
Protocol: A description of the first in human clinical trial for H3B-6527 can be found at the ClinicalTrials.gov by searching for trial identifier NCT02834780. […] Blood samples are collected at the planned time points from each patient and centrifuged. […] The concentration data are then analyzed using Phoenix® WinNonlin software to obtain PK parameters. […]
Recorded Endpoint: Tmax (min)
Answer with a number only, understood to be in min.

Request: Provide only the value of recorded Tmax for C=CC(=O)Nc1cc(N2CCN(CC)CC2)ccc1Nc1cc(N(C)C(=O)Nc2c(Cl)c(OC)cc(OC)c2Cl)ncn1
Response: 31.2

* * *

Experiment: Pharmacokinetic measurements of H3B-6527 capsules in patients (trial NCT02834780), plasma LC-MS/MS
Format: in vivo, human
Details: human, plasma, oral, 600 mg, 600 mg QD, fed, Day 1; Table 6, actual times after QC; read-out: Cmax, geometric mean (CV%)
Recorded Endpoint: Cmax
Field note: include the unit after the figure.

Request: Indicate the recorded Cmax value for this molecule: C=CC(=O)Nc1cc(N2CCN(CC)CC2)ccc1Nc1cc(N(C)C(=O)Nc2c(Cl)c(OC)cc(OC)c2Cl)ncn1
Response: 395 ng/mL

* * *

Assay: Pharmacokinetic measurements of H3B-6527 capsules in patients (trial NCT02834780), plasma LC-MS/MS
Type: in vivo, human
Conditions: human, plasma, oral, 600 mg, 600 mg QD, fed, Day 1; Table 5, nominal times; read-out: Half-life, geometric mean (CV%) (converted)
Recorded Endpoint: half-life (h)
All answers are understood in h, so give the number only.

Request: Let me know recorded half-life for C=CC(=O)Nc1cc(N2CCN(CC)CC2)ccc1Nc1cc(N(C)C(=O)Nc2c(Cl)c(OC)cc(OC)c2Cl)ncn1 [H3B-6527] , thanks.
Response: 3.7

* * *

Assay: Pharmacokinetic measurements of H3B-6527 capsules in patients (trial NCT02834780), plasma LC-MS/MS
Format: in vivo, human
Conditions: human, plasma, oral, 1000 mg, 1000 mg QD, fed, Day 1; Table 6, actual times after QC; read-out: Half-life, geometric mean (CV%) (converted)
Recorded Endpoint: half-life (min)
# number only, unit min dropped from output

Request: Output measured half-life for this item: C=CC(=O)Nc1cc(N2CCN(CC)CC2)ccc1Nc1cc(N(C)C(=O)Nc2c(Cl)c(OC)cc(OC)c2Cl)ncn1
Response: 236

* * *

Assay: Pharmacokinetic measurements of H3B-6527 capsules in patients (trial NCT02834780), plasma LC-MS/MS
Type: in vivo, human
Conditions: human, plasma, oral, 1400 mg, 1400 mg QD, fed, Day 1; Table 6, actual times after QC; read-out: Tmax, median (min-max)
Recorded Endpoint: Tmax (h)
Form entry: value (h) — number only.

Request: Provide measured Tmax value, entry: C=CC(=O)Nc1cc(N2CCN(CC)CC2)ccc1Nc1cc(N(C)C(=O)Nc2c(Cl)c(OC)cc(OC)c2Cl)ncn1
Response: 5

* * *

Assay: Pharmacokinetic measurements of H3B-6527 capsules in patients (trial NCT02834780), plasma LC-MS/MS
Format: in vivo, human
Conditions: human, plasma, oral, 600 mg, 600 mg QD, fasted, Day 1; Table 5, nominal times; read-out: Cmax, geometric mean (CV%)
Recorded Endpoint: Cmax

Request: Return Cmax (reported value) for this compound: C=CC(=O)Nc1cc(N2CCN(CC)CC2)ccc1Nc1cc(N(C)C(=O)Nc2c(Cl)c(OC)cc(OC)c2Cl)ncn1
Response: 74 ng/mL

* * *

Assay: Pharmacokinetic measurements of H3B-6527 capsules in patients (trial NCT02834780), plasma LC-MS/MS
Assay type: in vivo, human
Conditions: human, plasma, oral, 1000 mg, 1000 mg QD, fed, Day 1; Table 5, nominal times; read-out: Tmax, median (min-max)
Recorded Endpoint: Tmax

Request: Return Tmax for the following molecule: C=CC(=O)Nc1cc(N2CCN(CC)CC2)ccc1Nc1cc(N(C)C(=O)Nc2c(Cl)c(OC)cc(OC)c2Cl)ncn1 [H3B-6527]
Response: 5.05 h

Sourced from patent US20230172867A1
